experiment: binders from COS7 lysate, DM2A8 probe, primary screen, torsin A project, cell lysate, small-molecule microarray, fluorescence 635/667 (AID 1065); conditions: higher = more signal, COS7 lysate expressing mutant human TOR1A
Label scheme for composite z-score: lower than 0.6 is FALSE, 0.6 and above is TRUE.

Please tell me: is the compound CN1C(=O)C2C=CC(C(O)Cc3ccccc3)N(Nc3ccccc3)C2C1=O (configuration not stated) at or over 0.6 in terms of composite z-score?
FALSE

Quick check: does COc1cc(OC)c(C(O)C2C=CC3C(=O)NC(=O)C3N2Nc2ccc(Cl)cc2Cl)cc1Br (configuration not stated) have composite z-score greater than or equal to 0.6?
FALSE

Is reported composite z-score greater than or equal to 0.6 here: `COc1ccc([Si](C)(C)[C@H]2[C@H](CCO)O[C@@]3(C(=O)N(Cc4ccc(N5C(=O)COc6ccccc65)cc4)c4ccccc43)[C@@H]2C)cc1`
FALSE

Check the entry `COCCOC(=O)N1C(=O)[C@@]2(c3cc(C#CCNC(N)=O)ccc31)[C@H](C(=O)NC[C@H](O)c1ccccc1)[C@H]1C(=O)O[C@H](c3ccccc3)[C@H](c3ccccc3)N1[C@@H]2c1ccccc1OCCO` : does composite z-score equal or exceed 0.6?
FALSE

Decide: composite z-score of CCCCCN1CC=CC23O[C@@H]4/C=C\CCCOC(=O)C4[C@H]2C(=O)N(C(CO)C(C)C)[C@@H]3C1=O (some centres not stated) >= 0.6?
FALSE

Quick check, composite z-score >= 0.6? [N-]=[N+]=Nc1ccccc1C[C@]1(C(=O)NCC(O)CO)N=C(c2ccc(OCCCO)cc2)O[C@H]1c1ccccc1N=[N+]=[N-] (some centres not stated)
FALSE

Can `COC(=O)[C@@]1(Cc2ccc(F)cc2)[C@H]2c3cc(C(=O)N(C)C)n(Cc4ccc(S(C)(=O)=O)cc4)c3C[C@H]2CN1C(=O)c1ccccc1` be said to have composite z-score at or above 0.6?
TRUE

Has `COc1cc2c(cc1OC)CN(C(=O)[C@H]1[C@@H]3C(=O)O[C@@H](c4ccccc4)[C@@H](c4ccccc4)N3[C@@H](c3ccc(O)cc3)[C@]13C(=O)Nc1ccc(C#CC4=CCCCC4)cc13)CC2` a recorded composite z-score greater than or equal to 0.6?
TRUE

hey, is composite z-score for this one >= 0.6? `CCCCCCC#C[Si](O[C@H](c1ccccc1)c1cn([C@H](CO)Cc2ccccc2)nn1)(C(C)C)C(C)C`
FALSE

# check: composite z-score of `C=CC[C@@]1(C(=O)NCc2ccccc2)N=C(c2ccc(OCCCO)cc2)O[C@@H]1c1ccccc1N=[N+]=[N-]` is greater than or equal to 0.6
TRUE

Kindly determine if composite z-score recorded for CN1C(=O)C2C=CC(C(O)c3cccs3)N(Nc3ccccc3)C2C1=O (configuration not stated) is above or exactly 0.6.
FALSE

Decide: is the reported value of composite z-score for CC1CC/C=C\[C@H]2OC34C=CCN(c5ccc(Cl)cc5)C(=O)[C@H]3N(CCO)C(=O)[C@]4(C)C2C(=O)O1 (some centres not stated) equal to or greater than 0.6?
FALSE

Please tell me: is the compound `[N-]=[N+]=NCc1ccccc1[C@@H]1OC(c2ccc(OCCCO)cc2)=N[C@]1(CCS(=O)(=O)c1ccccc1)C(=O)NCc1ccccc1` at or over 0.6 in terms of composite z-score?
TRUE

Is composite z-score at least 0.6? Consider C=CCC(OC(C)=O)[C@@H]1[C@@H](N(Cc2ccc(-c3ccccc3)cc2)C(=O)Cc2ccc(F)cc2)c2cc(OCCCO)ccc2N1C(=O)c1ccc(-c2ccccc2)cc1 (some centres not stated)
FALSE

Reported composite z-score at or above 0.6? `C=CCOC(=O)[C@H]1[C@@H]2C(=O)O[C@@H](c3ccccc3)[C@@H](c3ccccc3)N2[C@@H](c2ccc(OCCOC(=O)[C@@H]3C[C@@H]4C(=O)N5CCC[C@H]5C(=O)N4[C@@H]3c3cccc(OCCO)c3)cc2)[C@]12C(=O)Nc1ccccc12`
TRUE

Kindly determine if composite z-score recorded for `COCCOC(=O)N1C(=O)[C@@]2(c3cc(C#CCCO)ccc31)[C@H](c1ccc(OCCO)cc1)N1[C@H](c3ccccc3)[C@H](c3ccccc3)OC(=O)[C@H]1[C@@H]2C(=O)N1CCN(c2ncccn2)CC1` is above or exactly 0.6.
FALSE

hey, is composite z-score for this one >= 0.6? `COc1ccc(C(=O)Nc2ccc(CN3C(=O)[C@@]4(O[C@@H](CC(=O)N5CCC[C@H]5CO)[C@H]([Si](C)(C)c5ccc(OC)cc5)[C@H]4C)c4ccccc43)cc2)cc1`
FALSE

Textbook exercise: given the entry `CCCC=C(CCC)[C@@H](NS(=O)(=O)c1cccs1)c1ccc(C(=O)OC)cc1` , state whether its composite z-score is greater than or equal to 0.6.
FALSE

Determine whether measured composite z-score meets or exceeds 0.6 for `CCCC[C@@H]1C[C@H]1[C@@H](NC(=O)c1ccco1)c1ccc(C(=O)OC)cc1`
FALSE

Is it the case that `COc1cc2c(cc1O)C=[N+](Cc1cccc(OC(F)(F)F)c1)CC2` has composite z-score reaching or exceeding 0.6?
FALSE

Item `COC(=O)[C@@]1(Cc2ccc(OC)cc2)[C@H]2c3cc(C(=O)N(C)C)n(CCN4CNCC4=O)c3C[C@H]2CN1C(=O)c1ccccc1` with composite z-score of 0.6 or above?
TRUE

Determine whether measured composite z-score meets or exceeds 0.6 for `CN(C)CCCNC(=O)[C@@]1(C)c2ccccc2C(=O)N(Cc2cc(F)cc(C(F)(F)F)c2)[C@H]1c1ccc(CO)cc1`
FALSE
